Values were extracted from a melting point compilation (Tetko et al.; mined from patent text by program, amines drawn as free bases though some values may be those of a salt).

parameterMeasured: melting point

Reported melting point for `N#Cc1ccc(CCCCC(=O)O)cc1` was 101 to 102 °C

Reported melting point for Cc1ccc(S(=O)(=O)N2CCCC2c2ccc(F)cc2)cc1 (racemic) was 128 °C

Reported melting point for O=S(=O)(c1ccccc1)N1CCC(C(NCCc2ccccc2)c2ccc(F)cc2)CC1 (configuration not stated) was 115 to 117 °C

Reported melting point for `CC=CC(=O)N(CCCCC(=O)O)C(c1ccccc1)c1ccccc1` was 88 to 89 °C

Reported melting point for Cc1nc2c3c(ccn2c1C)C(O)C(O)C(c1ccsc1)N3 (configuration not stated) was 134 to 138 °C

Reported melting point for CC(=O)c1ccc2c(c1)C1(C)C3(C)CCC(C3)C1(C)O2 (configuration not stated) was 140 to 142 °C

Reported melting point for `COc1ccc2c(c1)[C@@H](Oc1ccc3c(c1)CCC(=O)N3)[C@H](N1CCC[C@@H](N)C1)C2` was 146 °C
